- assay.system: Human immunodeficiency virus type 1 reverse transcriptase (Human immunodeficiency virus 1, UniProt Q72547, V106A)
- measurement.notes: Inhibition of […] HIV1 reverse transcriptase V106A mutant assessed as reduction in enzyme activity
Answer each item with its documented IC50.
State the result as a value with its unit after it.

Return reported IC50; argument: `Cc1cc(C)cc(S(=O)(=O)c2c(C(=O)N[C@@H](C)c3ccncc3)[nH]c3ccc(Cl)cc23)c1`
0.055 µM

Fill blank: measured IC50 of the molecule `Cc1cc(C)cc(S(=O)(=O)c2c(C(=O)N[C@H](C)c3ccncc3)[nH]c3ccc(Cl)cc23)c1` is ____.
0.026 µM

Tell me the measured IC50 of Cc1cc(C)cc(S(=O)(=O)c2c(C(=O)NC(C)c3ccncc3)[nH]c3ccc(Cl)cc23)c1 (racemic) , please.
0.04 µM

====

Please provide measured IC50 for the entries that follow.
- assay.system: Human immunodeficiency virus type 1 reverse transcriptase (Human immunodeficiency virus 1, UniProt Q72547)
Just the number in µM, nothing appended.

# lookup: IC50 of `Cc1cc(C)cc(S(=O)(=O)c2c(C(=O)N[C@@H](C)c3ccncc3)[nH]c3ccc(Cl)cc23)c1`
110

Recorded IC50 for `Cc1cc(C)cc(S(=O)(=O)c2c(C(=O)N[C@H](C)c3ccncc3)[nH]c3ccc(Cl)cc23)c1` , please?
2.23

Query: IC50; subject: Cc1cc(C)cc(S(=O)(=O)c2c(C(=O)NC(C)c3ccncc3)[nH]c3ccc(Cl)cc23)c1 (racemic)
3.5

====

- measurement.notes: Stability in human plasma assessed as remaining unmodified parent compound level after 24 hrs
- Type: ADME, cell-free
- assay.setup: read-out: Stability
measure.name: remaining at 24 h (%)
Field: numeric (%). Do not append units.

remaining at 24 h for `Cc1cc(C)cc(S(=O)(=O)c2c(C(=O)N[C@H](C)c3ccncc3)[nH]c3ccc(Cl)cc23)c1` ?
99

====

- assay.system: Human immunodeficiency virus type 1 reverse transcriptase (Human immunodeficiency virus 1, UniProt Q72547)
Exercise: for every item that follows, state its recorded IC50.

Return reported IC50; argument: `Cc1cc(C)cc(S(=O)(=O)c2c(C(=O)NN(C)c3ccccc3)[nH]c3ccc(Cl)cc23)c1`
16 nM

Which value of IC50 has been reported for `Cc1cc(C)cc(S(=O)(=O)c2c(C(=O)NCc3cccs3)[nH]c3ccc(Cl)cc23)c1` in the records?
30 nM

So what does the record say about IC50 for Cc1cc(C)cc(S(=O)(=O)c2c(C(=O)NC(C)c3ccncc3)[nH]c3ccc(Cl)cc23)c1 (racemic) ?
40 nM

Item `Cc1cc(C)cc(S(=O)(=O)c2c(C(=O)NCc3ccncn3)[nH]c3ccc(Cl)cc23)c1` has what recorded IC50?
42 nM

Quick one: IC50 for `Cc1cc(C)cc(S(=O)(=O)c2c(C(=O)N[C@H](C)c3ccncc3)[nH]c3ccc(Cl)cc23)c1` ?
18 nM

What value of IC50 has been recorded for this entry: `Cc1cc(C)cc(S(=O)(=O)c2c(C(=O)N[C@@H](C)c3ccncc3)[nH]c3ccc(Cl)cc23)c1`
40 nM

Which IC50 value is on record for `Cc1cc(C)cc(S(=O)(=O)c2c(C(=O)Nc3cccc(N)c3)[nH]c3ccc(Cl)cc23)c1` ?
19 nM

What IC50 value was documented for this molecule, Cc1cc(C)cc(S(=O)(=O)c2c(C(=O)NC(C)c3ccccn3)[nH]c3ccc(Cl)cc23)c1 (racemic) ?
64 nM

Recorded IC50 of `Cc1cc(C)cc(S(=O)(=O)c2c(C(=O)NCCn3c([N+](=O)[O-])cnc3C)[nH]c3ccc(Cl)cc23)c1` , please.
44 nM

Looking for the measured IC50 of `Cc1cc(C)cc(S(=O)(=O)c2c(C(=O)NNc3ccncc3)[nH]c3ccc(Cl)cc23)c1` , can you help?
> 20000 nM

====

Give pIC50 for every item shown.
- assay.system: Human immunodeficiency virus type 1 reverse transcriptase (Human immunodeficiency virus 1, UniProt Q72547, K103N)
Lab note — pIC50 values are minus log10 of concentrations in M.

What measured pIC50 goes with `Cc1cc(C)cc(S(=O)(=O)c2c(C(=O)NCc3ccncn3)[nH]c3ccc(Cl)cc23)c1` ?
7.02

Look up pIC50 for this compound: `Cc1cc(C)cc(S(=O)(=O)c2c(C(=O)NN(C)c3ccccc3)[nH]c3ccc(Cl)cc23)c1`
6.63

Form field: reported pIC50 of Cc1cc(C)cc(S(=O)(=O)c2c(C(=O)NC(C)c3ccncc3)[nH]c3ccc(Cl)cc23)c1 (racemic)
6.66

Returns the measured pIC50 for the input compound. Input: `Cc1cc(C)cc(S(=O)(=O)c2c(C(=O)NCc3ccco3)[nH]c3ccc(Cl)cc23)c1`
8.05

What value of measured pIC50 is listed for Cc1cc(C)cc(S(=O)(=O)c2c(C(=O)NC(C)c3ccccn3)[nH]c3ccc(Cl)cc23)c1 (racemic) ?
7.00

Entry Cc1cc(C)cc(S(=O)(=O)c2c(C(=O)NC(C)c3cccs3)[nH]c3ccc(Cl)cc23)c1 (stereo not given) has what pIC50?
7.10

Which pIC50 value is on record for Cc1cc(C)cc(S(=O)(=O)c2c(C(=O)NC(C)c3cccnc3)[nH]c3ccc(Cl)cc23)c1 (racemic) ?
6.92

State the recorded pIC50 for this entry: `Cc1cc(C)cc(S(=O)(=O)c2c(C(=O)NCCn3c([N+](=O)[O-])cnc3C)[nH]c3ccc(Cl)cc23)c1`
6.19

What value of pIC50 has been recorded for this entry: `Cc1cc(C)cc(S(=O)(=O)c2c(C(=O)NCCc3cccs3)[nH]c3ccc(Cl)cc23)c1`
7.38

Data request, read-out pIC50, for `Cc1cc(C)cc(S(=O)(=O)c2c(C(=O)Nc3cccc(N)c3)[nH]c3ccc(Cl)cc23)c1`
6.51

Which pIC50 is reported for this compound? `Cc1cc(C)cc(S(=O)(=O)c2c(C(=O)N[C@H](C)c3ccncc3)[nH]c3ccc(Cl)cc23)c1`
7.30

Which measured pIC50 value corresponds to `Cc1cc(C)cc(S(=O)(=O)c2c(C(=O)N[C@@H](C)c3ccncc3)[nH]c3ccc(Cl)cc23)c1` ?
6.15

====

- measurement.notes: Cytotoxic activity against human MT4 cells by MTT assay
- Assay type: cell-based
I'd be grateful if you could share measured CC50 for these entries.
The reply should be a number in µM, with the unit left off.

I would be grateful if you could share the reported CC50 for Cc1cc(C)cc(S(=O)(=O)c2c(C(=O)NC(C)c3cccs3)[nH]c3ccc(Cl)cc23)c1 (centres undefined) .
32.3

Looking for the measured CC50 of Cc1cc(C)cc(S(=O)(=O)c2c(C(=O)NC(C)c3cccnc3)[nH]c3ccc(Cl)cc23)c1 (racemic) , can you help?
54.6

For the compound `Cc1cc(C)cc(S(=O)(=O)c2c(C(=O)NCCc3ccccc3)[nH]c3ccc(Cl)cc23)c1` , what CC50 is on record?
37.9

Can you share its CC50? I mean this compound: `Cc1cc(C)cc(S(=O)(=O)c2c(C(=O)NCCn3c([N+](=O)[O-])cnc3C)[nH]c3ccc(Cl)cc23)c1`
25.4

Recorded CC50 of `Cc1cc(C)cc(S(=O)(=O)c2c(C(=O)NCc3ccccc3)[nH]c3ccc(Cl)cc23)c1` , please.
38

# input compound: `Cc1cc(C)cc(S(=O)(=O)c2c(C(=O)Nc3ccncc3)[nH]c3ccc(Cl)cc23)c1` ; wanted: its CC50
20.6

Fill in: CC50 of `NC(=O)c1[nH]c2ccc(Cl)cc2c1S(=O)(=O)c1c(Cl)cccc1Cl` is ___
16

====

For each of the compounds below, state its selectivity ratio.
- measurement.notes: in vitro
- assay.setup: human, MT4 cells
- Description: Selectivity index, ratio of CC50 for human MT4 cells to EC50 for HIV1 NL4-3 infected in human MT4 cells
Form rule: numeric answer, no unit written next to it.

Given the compound Cc1cc(C)cc(S(=O)(=O)c2c(C(=O)NC(C)c3ccncc3)[nH]c3ccc(Cl)cc23)c1 (racemic) , what is its reported selectivity ratio?
151000

Would you kindly share the measured selectivity ratio for `Cc1cc(C)cc(S(=O)(=O)c2c(C(=O)NN(C)c3ccccc3)[nH]c3ccc(Cl)cc23)c1` ?
21000

Report selectivity ratio for `NC(=O)c1[nH]c2ccc(Cl)cc2c1S(=O)(=O)c1c(Cl)cccc1Cl` please.
64100

Consider the compound shown here: Cc1cc(C)cc(S(=O)(=O)c2c(C(=O)NC(C)c3cccs3)[nH]c3ccc(Cl)cc23)c1 (configuration not stated) What is its recorded selectivity ratio?
162000

Please give the measured selectivity ratio for this compound: `Cc1cc(C)cc(S(=O)(=O)c2c(C(=O)NCc3ccccc3)[nH]c3ccc(Cl)cc23)c1`
173000

// selectivity ratio lookup, key: `Cc1cc(C)cc(S(=O)(=O)c2c(C(=O)NCCc3ccccc3)[nH]c3ccc(Cl)cc23)c1`
18000

Return reported selectivity ratio; argument: Cc1cc(C)cc(S(=O)(=O)c2c(C(=O)NC(C)c3ccccn3)[nH]c3ccc(Cl)cc23)c1 (racemic)
91000
